Organism: Homo sapiens
Assay Method Text: Activation of human recombinant AMPK alpha2/beta1/gamma1 using substrate-1 peptide as substrate incubated for 45 mins in presence of ATP by HTRF assay relative to negative control
Condition Description: filed as activator
fold change (FC) below 3 gives FALSE; fold change (FC) at or above it gives TRUE.

Entry `COc1ccc(NCCC[C@](C)(O)[C@H]2CC[C@]3(C)[C@@H]2[C@H](O)C[C@@H]2[C@@]4(C)C[C@@H](O)[C@H](O)C(C)(C)[C@@H]4CC[C@]23C)cc1` : is its fold change (FC) no less than 3?
FALSE

Entry `CC(C)(C)NCCC[C@](C)(O)[C@H]1CC[C@]2(C)[C@@H]1[C@H](O)C[C@@H]1[C@@]3(C)C[C@@H](O)[C@H](O)C(C)(C)[C@@H]3CC[C@]12C` : is its fold change (FC) no less than 3?
FALSE

Entry `CC(C)(O)[C@H]1CC[C@](C)([C@H]2CC[C@]3(C)[C@@H]2[C@H](O)C[C@@H]2[C@@]4(C)C[C@@H](O)[C@H](O)C(C)(C)[C@@H]4CC[C@]23C)O1` : is its fold change (FC) no less than 3?
TRUE

Entry `CNCCC[C@](C)(O)[C@H]1CC[C@]2(C)[C@@H]1[C@H](O)C[C@@H]1[C@@]3(C)C[C@@H](O)[C@H](O)C(C)(C)[C@@H]3CC[C@]12C` : is its fold change (FC) no less than 3?
FALSE

Entry `CC1(C)[C@@H](O)[C@H](O)C[C@]2(C)[C@H]3C[C@@H](O)[C@@H]4[C@@H]([C@@](C)(O)CCCNCc5ccccc5)CC[C@@]4(C)[C@]3(C)CC[C@@H]12` : is its fold change (FC) no less than 3?
TRUE

###

Species on record: Homo sapiens
Assay Method Text: Activation of human recombinant AMPK alpha2/beta1/gamma1 using substrate-1 peptide as substrate incubated for 45 mins in presence of ATP by HTRF assay relative to negative control
Condition Description: filed as activator
Criterion: fold change (FC) strictly less than 3. Met: rule met. Not met: rule not met.

Does this compound meet the criterion fold change (FC) < 3? `COc1ccc(CNCCC[C@](C)(O)[C@H]2CC[C@]3(C)[C@@H]2[C@H](O)C[C@@H]2[C@@]4(C)C[C@@H](O)[C@H](O)C(C)(C)[C@@H]4CC[C@]23C)cc1`
rule met

Does this compound meet the criterion fold change (FC) < 3? `CC(C)=CCC[C@](C)(O)[C@H]1CC[C@]2(C)[C@@H]1[C@H](O)C[C@@H]1[C@@]3(C)C[C@@H](O)[C@H](O)C(C)(C)[C@@H]3CC[C@]12C`
rule met

Does this compound meet the criterion fold change (FC) < 3? `CC1(C)[C@@H](O)[C@H](O)C[C@]2(C)[C@H]3C[C@@H](O)[C@@H]4[C@@H]([C@@](C)(O)CCCNCc5ccncc5)CC[C@@]4(C)[C@]3(C)CC[C@@H]12`
rule not met

Does this compound meet the criterion fold change (FC) < 3? `CCNCCC[C@](C)(O)[C@H]1CC[C@]2(C)[C@@H]1[C@H](O)C[C@@H]1[C@@]3(C)C[C@@H](O)[C@H](O)C(C)(C)[C@@H]3CC[C@]12C`
rule met

Does this compound meet the criterion fold change (FC) < 3? `CC1(C)[C@@H](O)[C@H](O)C[C@]2(C)[C@H]3C[C@@H](O)[C@@H]4[C@@H]([C@@](C)(O)CCCNCc5cccnc5)CC[C@@]4(C)[C@]3(C)CC[C@@H]12`
rule met

Does this compound meet the criterion fold change (FC) < 3? `CC(C)(O)[C@@H]1CC[C@](C)([C@H]2CC[C@]3(C)[C@@H]2[C@H](O)C[C@@H]2[C@@]4(C)C[C@@H](O)[C@H](O)C(C)(C)[C@@H]4CC[C@]23C)O1`
rule not met

Does this compound meet the criterion fold change (FC) < 3? `CC1(C)[C@@H](O)[C@H](O)C[C@]2(C)[C@H]3C[C@@H](O)[C@@H]4[C@@H]([C@@](C)(O)CCCNCc5ccc(F)cc5)CC[C@@]4(C)[C@]3(C)CC[C@@H]12`
rule not met

Does this compound meet the criterion fold change (FC) < 3? `CCCNCCC[C@](C)(O)[C@H]1CC[C@]2(C)[C@@H]1[C@H](O)C[C@@H]1[C@@]3(C)C[C@@H](O)[C@H](O)C(C)(C)[C@@H]3CC[C@]12C`
rule met

Does this compound meet the criterion fold change (FC) < 3? `CC1(C)[C@@H](O)[C@H](O)C[C@]2(C)[C@H]3C[C@@H](O)[C@@H]4[C@@H]([C@@](C)(O)CCCNCCc5ccccc5)CC[C@@]4(C)[C@]3(C)CC[C@@H]12`
rule met

Does this compound meet the criterion fold change (FC) < 3? Nc1ncnc2c1ncn2[C@@H]1O[C@H](COP(=O)(O)O)[C@@H](O)[C@H]1O [ADENOSINE PHOSPHATE]
rule not met

Does this compound meet the criterion fold change (FC) < 3? `CC(C)NCCC[C@](C)(O)[C@H]1CC[C@]2(C)[C@@H]1[C@H](O)C[C@@H]1[C@@]3(C)C[C@@H](O)[C@H](O)C(C)(C)[C@@H]3CC[C@]12C`
rule met
